experiment: cell viability in Huh7 cells, primary screen, cytotoxicity control for HCV replication inhibitor project, CellTiter-Glo luminescence, basal, 48 h (AID 1143); conditions: Huh7 HCV replicon, higher = more signal, called active from +8 up or from −8 down;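 note: Huh7 hepatoma cells carrying a hepatitis C replication reporter with no stimulus; test concentration not given here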
rule met means recorded z-score is -2 or above; rule not met means it is below -2.

Exercise: Determine whether this compound has z-score no lower than -2: "CCCCC(=C=CC[C@H](O)c1ccc(OCCO)cc1)C[C@H](O)c1ccccn1"
Key: rule met

Exercise: Determine whether this compound has z-score no lower than -2: "C=C(COC)/C(=C/C[C@H](OC(=O)c1ccncc1)c1cccc(OCCO)c1)c1cnc2ccccc2c1"
Key: rule met

Exercise: Determine whether this compound has z-score no lower than -2: CC1CC/C=C\[C@H]2OC34C=CCN(CCN5CCOCC5)C(=O)[C@H]3N(CCCCCCO)C(=O)[C@@H]4C2C(=O)O1 (stereo not given in full)
Key: rule met

Exercise: Determine whether this compound has z-score no lower than -2: CC(C)C[C@@H]1NC(=O)C([C@@H](C)OCc2ccccc2)NC(=O)[C@@]23C(=O)N[C@@H](Cc4ccccc4)C2[C@H](C)[C@@]2(C)O[C@H]2C3/C=C/CC/C=C/CNC1=O (stereo not given in full)
Key: rule not met

Exercise: Determine whether this compound has z-score no lower than -2: "C[N+](C)(C)CCCC[C@@H]1NC(=O)[C@H]2C[C@@H](C(=O)NCCCCCNC(=O)CS)[C@@H](c3ccc(O)cc3)N2C1=O"
Key: rule met

Exercise: Determine whether this compound has z-score no lower than -2: "CC#CCO[Si](C#CCCCCCC)(C(C)C)C(C)C"
Key: rule met

Exercise: Determine whether this compound has z-score no lower than -2: "COCCOC(=O)N1C(=O)[C@@]2(c3cc(C#CCCO)ccc31)[C@H](C(=O)N1CCc3cc(OC)c(OC)cc3C1)[C@H]1C(=O)O[C@H](c3ccccc3)[C@H](c3ccccc3)N1[C@@H]2c1ccccc1OCCO"
Key: rule met

Exercise: Determine whether this compound has z-score no lower than -2: COC(=O)C1=CC(CCCO)=CC(c2ccc(CN3CCCC3)cc2)N(Cc2sc3ccccc3c2Cl)C=C1C(=O)OC (stereo not given)
Key: rule not met

Exercise: Determine whether this compound has z-score no lower than -2: "[N-]=[N+]=NCc1ccccc1C[C@]1(C(=O)N2CCCCC2)N=C(c2ccc(OCCCO)cc2)O[C@H]1c1ccccc1"
Key: rule not met

Exercise: Determine whether this compound has z-score no lower than -2: "CO[C@H]1O[C@H](CO)[C@@H](OC(=O)Nc2ccc(C(F)(F)F)cc2)[C@H](OC(=O)Nc2ccccc2-c2ccccc2)[C@@H]1OC(=O)Nc1ccccc1-c1ccccc1"
Key: rule not met

Exercise: Determine whether this compound has z-score no lower than -2: "CC(C)[Si](C#CCCCC#N)(O[C@H](c1ccccc1)c1cn([C@H](C)c2ccccc2)nn1)C(C)C"
Key: rule met

Exercise: Determine whether this compound has z-score no lower than -2: "CCCC=C(CCC)[C@@H](NC(=O)c1ccco1)c1ccc(C(=O)OC)cc1"
Key: rule not met

Exercise: Determine whether this compound has z-score no lower than -2: "C[N+](C)(C)CCCCCCNC(=O)[C@@H]1C[C@@H]2C(=O)N[C@@H](Cc3ccccc3)C(=O)N2[C@@H]1c1ccc(O)cc1"
Key: rule met

----------
Could you please report measured composite z-score for the items listed next?
assay: anti-His antibody binders, primary screen, artefact control for SMM control protein annotation, biochemical, small-molecule microarray, 635 nm fluorescence (AID 1128); conditions: anti-His Alexa647 antibody binding, higher = more signal;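 note: score merges feature fluorescence with signal-to-noise for each printed compound spot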
// no unit, no text: just the number

Exercise: Please list composite z-score recorded for the compound "COc1ccc([Si](C)(C)[C@@H]2[C@@H](CC(=O)N(CCO)Cc3ccccc3)O[C@]3(C(=O)N(Cc4ccc(N5CCC5=O)cc4)c4ccccc43)[C@H]2C)cc1"
Key: 1.28

Exercise: Please list composite z-score recorded for the compound CC1CC/C=C\[C@H]2OC34C=CCN(c5ccc(Cl)cc5)C(=O)[C@H]3N(CCCO)C(=O)[C@]4(C)C2C(=O)O1 (stereo partly specified)
Key: -0.567

Exercise: Please list composite z-score recorded for the compound "CC(C)CNC(=O)[C@@]1(C)c2ccccc2C(=O)N(Cc2cc(F)cc(C(F)(F)F)c2)[C@H]1c1ccc(CO)cc1"
Key: 0.83

Exercise: Please list composite z-score recorded for the compound "COCCOC(=O)N1C(=O)[C@@]2(c3cc(C#CC4(O)CCCCCC4)ccc31)[C@H](C(=O)N1CCc3cc(OC)c(OC)cc3C1)[C@H]1C(=O)O[C@H](c3ccccc3)[C@H](c3ccccc3)N1[C@@H]2c1ccc(O)cc1"
Key: 2.17

Exercise: Please list composite z-score recorded for the compound "Cc1ccc(F)cc1S(=O)(=O)N[C@@H]1CCN(Cc2ccc3[nH]ccc3c2)C1"
Key: 0.426

Exercise: Please list composite z-score recorded for the compound "COC(=O)[C@@]1(Cc2ccc(F)cc2)[C@H]2c3cc(C(=O)N(C)C)n(CCn4cc([N+](=O)[O-])nc4C)c3C[C@H]2CN1C(=O)c1ccccc1"
Key: 1.07

----------
Could you please report measured composite z-score for the items listed next?
biological target: Focal adhesion kinase 1 (Homo sapiens); experiment: small-molecule microarray binders of FAK, primary screen, biochemical, 635/667 nm fluorescence, BSA, DTT (AID 1130); details: PTK2 binding, 635 nm fluorescence, higher = more signal;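 note: composite of spot emission at 667 nm and signal to noise over triplicate slides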
// no unit, no text: just the number

Exercise: Please list composite z-score recorded for the compound COc1cc(OC)c(C(O)C2C=CC3C(=O)N(c4ccccc4)C(=O)C3N2Nc2ccccc2F)cc1Br (centres undefined)
Key: 0.823

Exercise: Please list composite z-score recorded for the compound "O=C1N(Cc2ccccc2)c2ccccc2[C@H]2OC(c3ccc(OCCCO)cc3)=N[C@@]12Cc1ccccc1"
Key: 0.6

Exercise: Please list composite z-score recorded for the compound O=C1OCCC/C=C\[C@H]2OC34C=CCN(Cc5ccccc5)C(=O)[C@H]3N(CCCCCO)C(=O)[C@@H]4C12 (some centres undefined)
Key: -0.603

Exercise: Please list composite z-score recorded for the compound "C=CCN1C(=O)[C@]2(O[C@H](CCn3cc([C@H](O)c4ccccc4)nn3)[C@@H]([Si](C)(C)c3ccc(OC)cc3)[C@@H]2C)c2cc(N3C(=O)c4cccc5cccc3c45)ccc21"
Key: 0.33

Exercise: Please list composite z-score recorded for the compound C=CCC(OC(C)=O)[C@@H]1[C@@H](N(Cc2ccc(-c3ccccc3)cc2)C(=O)c2ccc(-c3ccccc3)cc2)c2cc(OCCCO)ccc2N1C(=O)c1ccc2ccccc2n1 (some centres undefined)
Key: 0.879

Exercise: Please list composite z-score recorded for the compound "O=c1cccc(-c2ccccc2C(F)(F)F)o1"
Key: -0.0583

Exercise: Please list composite z-score recorded for the compound "CC(C)C(=C=CC[C@@H](O)c1ccc(OCCO)cc1)CCO"
Key: -0.397

Exercise: Please list composite z-score recorded for the compound "COC(=O)[C@@]1(Cc2ccc(OC)cc2)[C@H]2c3cc(C(=O)N4CCCC4)n(CCc4ccc(OC)c(Br)c4)c3C[C@H]2CN1C(=O)c1ccccc1"
Key: 0.946

Exercise: Please list composite z-score recorded for the compound "C=C(COC)/C(=C/C[C@H](OC(=O)c1ccncc1)c1cccc(OCCO)c1)c1cnc2ccccc2c1"
Key: 0.521

Exercise: Please list composite z-score recorded for the compound "COCCCN1C(=O)[C@@]2(Cc3ccccc31)c1ccccc1C(=O)N(Cc1ccccc1OC)[C@H]2c1ccc(CO)cc1"
Key: -0.725

Exercise: Please list composite z-score recorded for the compound "CO[C@H]1O[C@H](CO)[C@@H](OC(=O)Nc2ccc3c(c2)OCO3)[C@@H]2OC(=O)[C@@H](Cc3ccccc3)C/C=C/C[C@H](Cc3ccccc3)C(=O)O[C@@H]12"
Key: 0.458

Exercise: Please list composite z-score recorded for the compound "CCOC(=O)C[C@H]1[C@H](OC(=O)c2ccc(-c3ccccc3)cc2)[C@@H](NC(=O)c2ccc3ccccc3c2)c2cc(OCCCO)ccc2N1C(=O)c1ccccc1"
Key: 0.19

Exercise: Please list composite z-score recorded for the compound "COCCCNC(=O)[C@@]1(Sc2ccc(C)cc2)CC(=O)N(C2CCCCC2)[C@@H]1c1ccc(CO)cc1I"
Key: 0.737

Exercise: Please list composite z-score recorded for the compound "COCCOC(=O)N1C(=O)[C@@]2(c3ccccc31)[C@H](C(=O)N1CCCCCCC1)[C@H]1C(=O)O[C@H](c3ccccc3)[C@H](c3ccccc3)N1[C@@H]2c1ccc(O)cc1"
Key: 1.01

----------
molecular target: Calmodulin-1 (Homo sapiens) (UniProt P0DP23); assay: CALM1 binders on microarrays, EGTA buffer, profiling panel, biochemical, small-molecule microarray, Cy5-labelled CALM1 (AID 1111); conditions: Cy5-CALM1 binding fluorescence, higher = more signal;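 note: labelled calmodulin applied in Tris saline Tween buffer holding calcium plus EGTA and DTT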
Could you please report measured composite z-score for the items listed next?
// no unit, no text: just the number

Exercise: Please list composite z-score recorded for the compound COc1ccc(NN2C(C(O)c3ccc(OC)cc3)C=CC3C(=O)N(C4CCCCC4)C(=O)C32)cc1 (centres undefined)
Key: 0.566

Exercise: Please list composite z-score recorded for the compound "CC(C)C[C@@H]1NC(=O)[C@H]2C[C@@H](C(=O)NCCCCCCNC(=O)CS)[C@@H](c3ccc(O)cc3)N2C1=O"
Key: 1.56

Exercise: Please list composite z-score recorded for the compound C=CCC(OC(C)=O)[C@@H]1[C@@H](N(Cc2cc3ccccc3o2)C(=O)c2cccc3ccccc23)c2cc(OCCCO)ccc2N1C(=O)c1ccc2ccccc2c1 (some centres undefined)
Key: -0.0758

Exercise: Please list composite z-score recorded for the compound "COc1ccc(NC(=O)O[C@H]2[C@H](OC(=O)Nc3ccc4c(c3)OCO4)[C@H](OC(=O)Nc3ccc4c(c3)OCO4)[C@@H](OC)O[C@@H]2CO)cc1"
Key: 0.888
